The values you see were collected from PubChem BioAssay (NCI).

System: SF-539 CNS
Test: NCI tumour cell line growth inhibition, 48 h
property_measured: TGI (µM)
Quick note: give the figure in µM, leave out the unit.

Look up TGI with SF-539 CNS for this compound: C=C1CC(COc2ccc3c(C)cc(=O)oc3c2)(c2ccccc2)OC1=O (stereo not given)
5.05

Enter reported TGI observed with SF-539 CNS for "N#Cc1c(N)c(C#N)c2c(c1-c1ccc(Cl)cc1)COc1ccccc1-2"
49.1

// map C/C=C(/C)C(=O)OC1C=C(CO)C(=O)C(OC(=O)C(C)(O)C(C)Cl)C1C(C)C (stereo not given) to recorded TGI (system: SF-539 CNS)
2.62

Give SF-539 CNS TGI for "Cn1nc(-c2ccccc2)c(C(=O)/C=C/c2ccc(F)cc2)c(N2CCOCC2)c1=O"
36.3

Give SF-539 CNS TGI for CC(=O)C1CCC2C3CC=C4CC(SC(=N)N)CCC4(C)C3CCC12C (stereo not given)
3.96
